Data credit: ChEMBL document CHEMBL4665759

assay: Cmax in Sprague-Dawley rat at 10 mg/kg, po; type: ADME, organism-based; parameters: route oral, dose 10 mg/kg; settings: in vivo
reported endpoint: Cmax (ng/mL)

smiles_record=Cc1cc(Cl)cc(-c2cnc3ncn(-c4cc(O)cc(F)c4)c(=O)c3c2CN(C)C[C@@H]2CCCN2)c1 endpoint_value=43

* * *

target: Voltage-gated inwardly rectifying potassium channel KCNH2 (Homo sapiens)
Sequence (Q12809 whole entry): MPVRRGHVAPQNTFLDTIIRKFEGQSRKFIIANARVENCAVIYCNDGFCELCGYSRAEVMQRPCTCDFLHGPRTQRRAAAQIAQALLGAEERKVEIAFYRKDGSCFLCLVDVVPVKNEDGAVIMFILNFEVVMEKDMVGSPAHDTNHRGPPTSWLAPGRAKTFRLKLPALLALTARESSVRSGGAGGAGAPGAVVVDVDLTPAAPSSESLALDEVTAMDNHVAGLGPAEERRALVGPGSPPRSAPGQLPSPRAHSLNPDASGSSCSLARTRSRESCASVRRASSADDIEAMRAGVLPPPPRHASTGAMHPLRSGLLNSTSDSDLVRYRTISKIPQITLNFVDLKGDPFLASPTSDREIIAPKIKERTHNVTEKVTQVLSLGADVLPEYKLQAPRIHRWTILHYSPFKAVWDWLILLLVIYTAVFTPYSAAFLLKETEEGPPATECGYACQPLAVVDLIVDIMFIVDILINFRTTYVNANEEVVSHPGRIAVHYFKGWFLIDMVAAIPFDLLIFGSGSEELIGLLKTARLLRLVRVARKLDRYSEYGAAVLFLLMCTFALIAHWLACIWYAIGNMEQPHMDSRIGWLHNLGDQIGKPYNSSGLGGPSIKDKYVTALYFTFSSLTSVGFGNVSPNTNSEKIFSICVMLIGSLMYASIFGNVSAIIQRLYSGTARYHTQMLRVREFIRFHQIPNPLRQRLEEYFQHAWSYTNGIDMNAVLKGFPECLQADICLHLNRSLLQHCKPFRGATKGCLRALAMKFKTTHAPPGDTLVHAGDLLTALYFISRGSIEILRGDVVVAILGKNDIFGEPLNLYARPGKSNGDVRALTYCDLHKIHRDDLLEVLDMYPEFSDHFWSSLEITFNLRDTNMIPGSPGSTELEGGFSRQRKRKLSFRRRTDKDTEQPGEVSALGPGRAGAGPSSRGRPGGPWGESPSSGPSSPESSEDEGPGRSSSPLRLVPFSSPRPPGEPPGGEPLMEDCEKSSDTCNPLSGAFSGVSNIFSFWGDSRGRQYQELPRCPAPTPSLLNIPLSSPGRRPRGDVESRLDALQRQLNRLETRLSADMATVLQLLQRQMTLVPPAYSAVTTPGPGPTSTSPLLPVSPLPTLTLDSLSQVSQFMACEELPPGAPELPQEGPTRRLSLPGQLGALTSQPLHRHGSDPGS
reported endpoint: IC50

smiles_record=Cc1cc(Cl)cc(-c2cnc3ncn(-c4cc(O)cc(F)c4)c(=O)c3c2CN(C)C[C@@H]2CCCN2)c1 endpoint_value="3.16 µM"

* * *

target: UniProtKB P35346; test: Agonist activity at human SST5
Sequence (P35346 whole entry): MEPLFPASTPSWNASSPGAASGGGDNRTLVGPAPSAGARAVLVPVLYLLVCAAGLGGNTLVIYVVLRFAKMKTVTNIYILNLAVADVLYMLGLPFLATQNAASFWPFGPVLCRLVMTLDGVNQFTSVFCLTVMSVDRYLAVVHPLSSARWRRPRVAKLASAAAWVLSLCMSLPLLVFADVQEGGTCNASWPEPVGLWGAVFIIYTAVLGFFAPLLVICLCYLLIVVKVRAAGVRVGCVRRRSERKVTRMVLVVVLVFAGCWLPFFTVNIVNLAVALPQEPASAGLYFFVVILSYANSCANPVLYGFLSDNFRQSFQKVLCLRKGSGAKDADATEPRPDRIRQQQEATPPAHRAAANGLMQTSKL
pEC50: −log10 of the molar value.
reported endpoint: pEC50

smiles_record=Cc1cc(Cl)cc(-c2cnc3ncn(-c4cc(O)cc(F)c4)c(=O)c3c2CN(C)C[C@@H]2CCCN2)c1 endpoint_value="< 6.00"

* * *

test: Half life in rat liver microsomes; assay type: ADME, Microsome
reported endpoint: half-life (min)

smiles_record=Cc1cc(Cl)cc(-c2cnc3ncn(-c4cc(O)cc(F)c4)c(=O)c3c2CN(C)C[C@@H]2CCCN2)c1 endpoint_value=23

* * *

biological target: Cytochrome P450 2C19 (Homo sapiens)
Sequence (P33261 whole entry): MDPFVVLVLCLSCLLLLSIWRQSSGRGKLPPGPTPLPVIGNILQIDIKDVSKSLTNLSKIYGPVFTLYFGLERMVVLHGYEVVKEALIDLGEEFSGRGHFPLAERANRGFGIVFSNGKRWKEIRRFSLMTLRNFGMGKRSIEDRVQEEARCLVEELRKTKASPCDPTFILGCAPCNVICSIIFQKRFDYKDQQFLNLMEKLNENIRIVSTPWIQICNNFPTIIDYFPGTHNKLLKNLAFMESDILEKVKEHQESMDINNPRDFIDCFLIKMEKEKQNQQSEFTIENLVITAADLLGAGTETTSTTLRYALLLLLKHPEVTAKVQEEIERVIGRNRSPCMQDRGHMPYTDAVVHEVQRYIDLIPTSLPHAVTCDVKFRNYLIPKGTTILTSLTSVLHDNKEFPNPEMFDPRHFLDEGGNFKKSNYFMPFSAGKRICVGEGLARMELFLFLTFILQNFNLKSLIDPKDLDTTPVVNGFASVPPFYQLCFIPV
pIC50: −log10 of the molar value.
reported endpoint: pIC50

smiles_record=Cc1cc(Cl)cc(-c2cnc3ncn(-c4cc(O)cc(F)c4)c(=O)c3c2CN(C)C[C@@H]2CCCN2)c1 endpoint_value="< 5.00"

* * *

biological target: Cytochrome P450 3A4 (Homo sapiens, UniProt P08684); experiment: Inhibition of CYP3A4 (unknown origin); type: ADME
Sequence (P08684 whole entry): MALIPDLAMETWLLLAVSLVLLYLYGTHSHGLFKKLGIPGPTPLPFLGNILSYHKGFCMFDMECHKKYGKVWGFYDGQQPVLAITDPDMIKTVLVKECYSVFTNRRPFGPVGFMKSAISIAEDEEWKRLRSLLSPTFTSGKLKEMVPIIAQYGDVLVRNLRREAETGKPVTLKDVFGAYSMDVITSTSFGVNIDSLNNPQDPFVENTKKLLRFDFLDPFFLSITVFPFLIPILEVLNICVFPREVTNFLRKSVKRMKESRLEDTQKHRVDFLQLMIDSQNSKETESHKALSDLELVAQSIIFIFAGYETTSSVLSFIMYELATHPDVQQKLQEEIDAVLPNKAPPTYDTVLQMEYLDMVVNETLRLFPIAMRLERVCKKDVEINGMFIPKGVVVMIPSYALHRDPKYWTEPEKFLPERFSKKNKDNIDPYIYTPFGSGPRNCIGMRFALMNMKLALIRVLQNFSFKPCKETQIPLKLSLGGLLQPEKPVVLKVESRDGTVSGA
reported endpoint: IC50

smiles_record=Cc1cc(Cl)cc(-c2cnc3ncn(-c4cc(O)cc(F)c4)c(=O)c3c2CN(C)C[C@@H]2CCCN2)c1 endpoint_value="> 10 µM"

* * *

assay: AUC (0 to infinity) in Sprague-Dawley rat at 10 mg/kg, po; assay type: ADME, organism-based; design: time infinity, route oral, dose 10 mg/kg; conditions: in vivo
reported endpoint: AUC(0-inf) (ng·h/mL)

smiles_record=Cc1cc(Cl)cc(-c2cnc3ncn(-c4cc(O)cc(F)c4)c(=O)c3c2CN(C)C[C@@H]2CCCN2)c1 reported_endpoint=AUC(0-inf) unit_info=ng·h/mL endpoint_value=329

* * *

target: UniProtKB P30872; assay: Agonist activity at human SST1
Sequence (P30872 whole entry): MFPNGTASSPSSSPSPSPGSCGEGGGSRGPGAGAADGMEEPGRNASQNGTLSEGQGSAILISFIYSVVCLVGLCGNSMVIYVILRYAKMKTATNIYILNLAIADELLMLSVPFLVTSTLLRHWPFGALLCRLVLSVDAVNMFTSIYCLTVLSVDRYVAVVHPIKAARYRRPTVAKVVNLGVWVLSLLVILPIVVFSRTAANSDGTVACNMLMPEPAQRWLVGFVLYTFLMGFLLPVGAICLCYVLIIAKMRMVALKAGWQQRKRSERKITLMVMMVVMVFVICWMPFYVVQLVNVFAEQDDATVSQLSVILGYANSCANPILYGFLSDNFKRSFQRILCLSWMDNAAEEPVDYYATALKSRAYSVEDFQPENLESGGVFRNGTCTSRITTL
reported endpoint: EC50 (nM)

smiles_record=Cc1cc(Cl)cc(-c2cnc3ncn(-c4cc(O)cc(F)c4)c(=O)c3c2CN(C)C[C@@H]2CCCN2)c1 endpoint_value=316

* * *

target: Cytochrome P450 2C9 (Homo sapiens, UniProt P11712)
Sequence (P11712 whole entry): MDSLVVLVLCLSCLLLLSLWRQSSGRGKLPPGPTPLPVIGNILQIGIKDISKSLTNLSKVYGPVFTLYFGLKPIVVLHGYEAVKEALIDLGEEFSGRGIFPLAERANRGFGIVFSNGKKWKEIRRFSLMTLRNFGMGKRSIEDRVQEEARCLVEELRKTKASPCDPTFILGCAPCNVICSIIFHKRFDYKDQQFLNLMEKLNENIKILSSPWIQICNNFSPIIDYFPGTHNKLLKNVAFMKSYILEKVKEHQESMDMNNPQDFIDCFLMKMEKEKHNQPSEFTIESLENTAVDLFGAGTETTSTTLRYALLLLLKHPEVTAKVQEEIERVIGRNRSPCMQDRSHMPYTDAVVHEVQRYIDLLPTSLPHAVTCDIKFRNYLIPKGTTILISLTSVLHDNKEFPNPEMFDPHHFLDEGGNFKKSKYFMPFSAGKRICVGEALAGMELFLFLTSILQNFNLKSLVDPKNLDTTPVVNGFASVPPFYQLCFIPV
pIC50: −log10 of the molar value.
reported endpoint: pIC50

smiles_record=Cc1cc(Cl)cc(-c2cnc3ncn(-c4cc(O)cc(F)c4)c(=O)c3c2CN(C)C[C@@H]2CCCN2)c1 endpoint_value="< 5.00"

* * *

assay: Oral bioavailability in Sprague-Dawley rat at 10 mg/kg; type: ADME, organism-based; conditions: in vivo
reported endpoint: bioavailability (%)

smiles_record=Cc1cc(Cl)cc(-c2cnc3ncn(-c4cc(O)cc(F)c4)c(=O)c3c2CN(C)C[C@@H]2CCCN2)c1 reported_endpoint=bioavailability endpoint_value=14

* * *

molecular target: Somatostatin receptor type 3 (Homo sapiens); test: Agonist activity at human SST3
Sequence (P32745 whole entry): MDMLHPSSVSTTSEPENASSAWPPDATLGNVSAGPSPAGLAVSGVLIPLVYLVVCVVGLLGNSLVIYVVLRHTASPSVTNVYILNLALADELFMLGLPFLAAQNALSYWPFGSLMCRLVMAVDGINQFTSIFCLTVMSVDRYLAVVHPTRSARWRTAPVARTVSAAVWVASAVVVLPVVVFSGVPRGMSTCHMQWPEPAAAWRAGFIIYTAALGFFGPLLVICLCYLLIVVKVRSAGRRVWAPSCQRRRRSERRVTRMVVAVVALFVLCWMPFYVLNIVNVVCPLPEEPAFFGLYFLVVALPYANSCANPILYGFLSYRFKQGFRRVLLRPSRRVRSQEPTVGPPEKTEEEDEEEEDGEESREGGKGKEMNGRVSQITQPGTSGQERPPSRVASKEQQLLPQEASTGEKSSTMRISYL
pEC50: −log10 of the molar value.
reported endpoint: pEC50

smiles_record=Cc1cc(Cl)cc(-c2cnc3ncn(-c4cc(O)cc(F)c4)c(=O)c3c2CN(C)C[C@@H]2CCCN2)c1 target="Somatostatin receptor type 3 (Homo sapiens)" reported_endpoint=pEC50 endpoint_value=8.10
